As shown below, each of these compounds has a reported TGI value.
# Test system: SF-268 CNS
# procedureSummary: NCI tumour cell line growth inhibition, 48 h

Examples from the recorded data:
Query: Kindly indicate its recorded TGI. Item: CCOC(=O)C(NC(=O)CC)(Nc1ccc(F)cc1F)C(F)(F)F (stereo not given)
Response: > 100 µM

Query: Indicate its recorded TGI; the compound in question is CN(C)c1ccccc1[CH2][Ga]([Cl])[CH2]c1ccccc1N(C)C
Response: 3.3 µM

Query: Please give measured TGI of the following entry: CCC1(c2ccc(N)cc2)CCC(=O)NC1=O (stereo not given)
Response: > 5000 µM

Query: Check the records and state TGI for CC1=C(C(=O)CC(=O)C(=O)Nc2ccc(C)c(C)c2)Sc2ccccc2N1
Response: > 100 µM

---
Query: // fetch TGI given entry CN(/N=C\c1ccnc2ccccc12)c1ccccc1
Response: > 100 µM

Query: Provide one value: measured TGI of c1ccc2c(CNCCCCCCCCNCc3cccc4ccccc34)cccc2c1
Response: 21.4 µM

Query: Complete the entry with TGI for COC(=O)C(=O)C(/C(=N/N)C(=O)Nc1ccccc1C(N)=O)c1nc2ccc([N+](=O)[O-])cc2[nH]c1=O (stereo not given)
Response: > 100 µM

Query: Give TGI for O=C(CC1(O)C(=O)Nc2c(Cl)cc(Cl)cc21)c1ccc(F)cc1 (stereo not given)
Response: > 100 µM

Query: Give recorded TGI. CC(C)(C)n1c(=O)n2n(c1=O)C1c3cccc4cccc(c34)C2C2c3cccc4cccc(c34)C1n1c(=O)n(C(C)(C)C)c(=O)n12
Response: > 100 µM

Query: Give the measured TGI for CC1Cc2ccccc2N1C(=O)Cc1nc(N2CCOCC2)cc(=O)[nH]1 (stereo not given)
Response: > 100 µM

###

# Test system: DMS 114 small cell lung
# procedureSummary: NCI tumour cell line growth inhibition, 48 h
Entries annotated with measured TGI

Before answering, review these 5 worked examples.
Query: Specify reported TGI for the compound shown: Cc1ccc(C(=O)Nc2ncn(C3CC(O)C(CO)O3)c(=O)n2)cc1 (stereo not given)
Response: > 100 µM

Query: Identify the reported TGI for the following entry. O=C(CC1(O)C(=O)Nc2c(Cl)cc(Cl)cc21)c1ccc(F)cc1 (stereo not given)
Response: 58.9 µM

Query: Please supply the value of reported TGI for the item O=C(O)c1ccc([C@@H]2C(=O)N(O)[C@@H]3C=CC[C@@H]32)cc1
Response: > 100 µM

Query: Fill in reported TGI for this entry: COc1ccccc1NC(=O)CC(=O)N1N=C(c2ccccc2)C(N=Nc2ccc(Cl)cc2)C1=O (stereo not given)
Response: > 100 µM

Query: # return recorded TGI for entry O=C(O)CCN(CCCN(CCC(=O)O)CCC(=O)O)CCC(=O)O
Response: > 100 µM

New cases:
Query: Please give the documented TGI of O=C(CSSCC(=O)OCCS(=O)(=O)Nc1ccc(Br)cc1)OCCS(=O)(=O)Nc1ccc(Br)cc1
Response: 29.3 µM

Query: Please report the measured TGI for CC(C)OP(=O)(OC(C)C)C(=NCCN=C(NNc1ccccc1[N+](=O)[O-])P(=O)(OC(C)C)OC(C)C)NNc1ccccc1[N+](=O)[O-]
Response: > 100 µM

Query: For the compound CCCCCCCCCCCCC(Br)C(C)=O (stereo not given) , report TGI.
Response: > 100 µM

Query: Identify measured TGI associated with CCCCCCCCCCCCSC(=S)c1c(C)[nH]n(CCCCCCCCCCCC)c1=O
Response: > 100 µM

###

# Tested on: HCT-116 colon
# procedureSummary: NCI tumour cell line growth inhibition, 48 h
observationType: TGI

Some entries whose results are on file:
Query: Give the measured TGI for COC(=O)C(c1ccc(OC)cc1)N1C(=O)[C@@H](NC(=O)c2ccccc2)[C@H]1[C@@H](C)O (some centres not stated)
Response: > 100 µM

Query: Consider the compound Cc1ccc(-c2nnc3s/c(=C\c4ccc(N(C)C)cc4)c(=O)n23)cc1 . State its measured TGI.
Response: > 100 µM

Query: Indicate the recorded TGI value for this compound: Cn1c2cn[nH]c(=O)c2c2ccc3ccccc3c21
Response: > 100 µM

Query: Supply TGI value. Item: CC(=O)n1[nH]c(=O)n(-c2ccccc2)c1=O
Response: > 100 µM

***
Query: State, in one line, measured TGI of C/C(=N/O)c1sc(-c2nc(C)c(/C(C)=N\O)s2)nc1C
Response: > 100 µM

Query: Indicate its recorded TGI; the compound in question is CC(=Nc1ccc(Cl)c(Cl)c1)c1ccncc1
Response: > 100 µM

Query: Give me measured TGI, please, for this compound: N#CC1=C(N)Oc2c(sc3c(Br)cccc23)C1c1ccc(Cl)cc1 (configuration not stated)
Response: 1.79 µM

Query: Return value of TGI for input O=C1CC2CC(CC3(CO3)C2)C1F (configuration not stated) , no commentary.
Response: > 100 µM

###

Reported TGI values for a set of compounds
# Tested on: OVCAR-5 ovarian
# procedureSummary: NCI tumour cell line growth inhibition, 48 h

Use these answered entries as a reference point.
Query: Please report the measured TGI for CCNc1nnc(-c2ccccc2Nc2ccccc2-c2nnc(NCC)s2)s1 tested on OVCAR-5 ovarian.
Response: 48.5 µM

Query: Report the value of TGI obtained on OVCAR-5 ovarian for COc1cc(C2OC[C@@H]3C(=O)OC[C@H]23)cc(O)c1OC (stereo partly drawn) .
Response: > 100 µM

Consider the record given below.
Query: Tell me its TGI on OVCAR-5 ovarian: CCOC(=O)C1SC(=Nc2ccc(Cl)cc2Cl)N=C1C (stereo not drawn)
Response: > 100 µM

###

# Tested on: SW-620 colon
# procedureSummary: NCI tumour cell line growth inhibition, 48 h
Recorded measurements of TGI, one per entry

Query: Name the recorded TGI of the item O=C1C(c2ccccc2)=C(c2ccccc2)C(c2ccc(Sc3ccc(C4=C(c5ccccc5)C(=O)C(c5ccccc5)=C4c4ccccc4)cc3)cc2)=C1c1ccccc1 in your answer.
Response: > 100 µM

###

# Test system: RPMI-8226 leukemia
# procedureSummary: NCI tumour cell line growth inhibition, 48 h
Residues, ends and D or L forms follow the SMILES beside them. *: point of attachment. Cbz = O=C(OCc1ccccc1)*
observationType: GI50

Query: Supply GI50 value. Item: CC(C)C[C@@H](C=O)NC(=O)[C@H](CC(C)C)NC(=O)[C@H](CC(C)C)NC(=O)OCc1ccccc1 (Cbz-Leu-Leu-Leu-aldehyde)
Response: 356 nM

Query: Determine from records and report GI50 for CC(=O)N[C@@H](Cc1ccc(OP(=O)(O)O)cc1)C(=O)N[C@H]1CCC(=O)N2CCC[C@@H](C(=O)NCc3ccccc3)N2C1=O
Response: > 25000 nM

Query: Check the records and state GI50 for COc1ccc(Cn2cc3c(c2-c2cc(OC)c(OC)c(OC)c2)CCc2c(CO)noc2-3)cc1
Response: 410 nM

Query: Determine from records and report GI50 for Cn1c(-c2c(N)n(Cc3ccc(F)cc3)c3nc(C#N)c(C#N)nc23)nc2ccccc21
Response: 1350 nM

Query: Return value of GI50 for input N#CC1=C(N)Oc2c(sc3c(Br)cccc23)C1c1ccc(Cl)cc1 (centres undefined) , no commentary.
Response: 496 nM

Query: Return GI50 (reported value) for this compound: Cc1ccc(OCCOCCOCCOCCOCCOc2ccc(C)n(O)c2=S)c(=S)n1O
Response: 71.3 nM

Query: For the compound O=C(O)c1cn(C2CC2)c2cc(N3CCN(Cc4c(O)ccc5ccccc45)CC3)c(F)cc2c1=O , give its measured GI50 value.
Response: 12000 nM

Query: Recall and state the measured GI50 for CCOC(=O)c1cc(NS(=O)(=O)c2ccc(C)cc2)cc(C(=O)OCC)c1 .
Response: 27000 nM

Query: Identify measured GI50 associated with CCCN(CCC)c1ccc(C=O)c(C)c1
Response: 69400 nM

###

# System: NCI-H23 lung
# procedureSummary: NCI tumour cell line growth inhibition, 48 h
Consider the following compounds and their measured TGI readings.

Record excerpt, results attached:
Query: Could you please provide reported TGI for C=C1C(=O)C2=CC1CCC(=O)C1(C)CCC(OC(C)=O)C(C)(C)C1CC2O (stereo not given) ? Thanks!
Response: 8.62 µM

Query: Give the measured TGI for O=c1[nH]c(=O)n(CCOc2ccc(Cl)cc2)cc1Nc1ccccc1
Response: > 100 µM

Query: Specify reported TGI for the compound shown: COc1ccccc1NC(=O)CC(=O)N1N=C(c2ccccc2)C(N=Nc2ccc(Cl)cc2)C1=O (stereo not given)
Response: > 100 µM

***
Query: Query TGI for CC(=O)OCC1OC(n2ncc(=O)[nH]c2=O)C(OC(C)=O)C1OC(C)=O (stereo not given)
Response: > 100 µM
